# ASSAY EXPLANATION: clinical
# CONDITION SET: human, plasma, 50 mg, CK-2017357 Cmax, CK-2017357 daily dose 375 (mg), 14 days; On Riluzole (50 mg daily); ALS patients
REPORTED ENDPOINT: Cmax (µg/mL)
One number for each entry, in µg/mL.

Give the value of Cmax reported for the following: C#Cc1cnc2nc(O)n(C(CC)CC)c2n1
13.5

----------
# ASSAY EXPLANATION: clinical
# CONDITION SET: human, plasma, 375 mg, CK-2017357 Cmax, CK-2017357 daily dose 375 (mg), 14 days; No Riluzole; ALS patients
REPORTED ENDPOINT: Cmax (ng/mL)
One number for each entry, in ng/mL.

Report Cmax, nothing else, for this molecule: C#Cc1cnc2nc(O)n(C(CC)CC)c2n1
12700
